Every entry's value here was drawn from PubChem BioAssay.

testDetails: viability loss in pontine glioma line – cell-based, JHH-DIPG-1, MIPE4.0, CellTiter-Glo, qHTS, dose response (AID 1347062);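 for AC50: cells exposed to compound for two days before readout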
cond: JHH-DIPG-1 viability, CellTiter-Glo ATP luminescence
Records with an inconclusive call do not appear. Active and inactive are the calls of the source. No cut-off is given here; in the data, nearly all actives have AC50 up to about 27 µM.
Possible outcomes: 1 for active, -1 for inactive

[
  {
    "smilesString": "COc1ccc(Cc2ccc(NC(N)=O)cc2)cc1-c1cccc(Cl)c1",
    "qualitativeLabel": -1
  },
  {
    "smilesString": "COc1c(C)cnc(Cn2cnc3c(Cl)nc(N)nc32)c1C",
    "qualitativeLabel": 1
  },
  {
    "smilesString": "COc1cc(Nc2ncc3c(n2)-c2ccc(Cl)cc2C(c2c(F)cccc2OC)=NC3)ccc1C(=O)O",
    "qualitativeLabel": -1
  },
  {
    "smilesString": "Cn1c(=O)c(F)c(Nc2ccc(I)cc2F)c2c(=O)n(C[C@@H](O)CO)cnc21",
    "qualitativeLabel": 1
  },
  {
    "smilesString": "COc1ccc(Nc2cc(-c3cnc(N)nc3)nc(N3CCOCC3)n2)cn1",
    "qualitativeLabel": 1
  },
  {
    "smilesString": "CO[C@H]1/C=C/O[C@@]2(C)Oc3c(C)c(O)c4c(O)c(c5c(nc6cc(C)ccn65)c4c3C2=O)NC(=O)/C(C)=C\\C=C\\[C@H](C)[C@H](O)[C@@H](C)[C@@H](O)[C@@H](C)[C@H](OC(C)=O)[C@@H]1C",
    "qualitativeLabel": -1
  }
]

----------
testDetails: viability loss with induced miR-34 in A549 – imaging, A549 dox-inducible miR-34, nuclei and caspase counts, primary screen (AID 1347080)
cond: A549 miR-34 inducible, Hoechst nuclei count, 48 h; measured here: total cells with miR-34 induction; stronger effect = lower value
Where a SMILES comes first, the peptide text is derived from it. [ ]: non-standard residue; d: D form.

[
  {
    "molecule": "CC(=O)NCC(=O)N[C@H](CCC(=O)O)C(=O)O (Ac-Gly-[dE]-OH)",
    "cell count": 9020
  },
  {
    "molecule": "O=C1O/C(=C/Br)CC[C@@H]1c1cccc2ccccc12",
    "cell count": 5530
  },
  {
    "molecule": "COc1cc2c(Oc3ccc(NC(=O)C4(C(=O)Nc5ccc(F)cc5)CC4)cc3F)ccnc2cc1OCCCN1CCOCC1",
    "cell count": 1060
  },
  {
    "molecule": "CC1=C(/C=C/C(=C/C=C/C(C)=C/C(=O)O)c2ccc(C)cc2)C(C)(C)CCC1",
    "cell count": 6950
  },
  {
    "molecule": "O=c1[nH]cc(CO)c(=O)[nH]1",
    "cell count": 5770
  },
  {
    "molecule": "C[N+](C)(C)CCCCCNCC12CC3CC(CC(C3)C1)C2",
    "cell count": 8560
  },
  {
    "molecule": "COc1ccc(NC(=O)c2ccc(-c3ccc(-c4noc(C)n4)cc3C)cc2)cc1OCCN(C)C",
    "cell count": 1160
  }
]

----------
viability by entry:
testDetails: drug combination growth inhibition, ovarian cancer – cell-based, oncology-focused library, rucaparib conditional, profiling panel (AID 1508598)
cond: patient-derived ovarian cancer cells, CellTiter-Glo viability, 144 h; at 0.00122 µM; OCI-P5x cells; with rucaparib 20 µM; stronger effect = lower value; 100% = cells with rucaparib alone
propertyLabel: viability (%)

[
  {
    "smilesString": "O=C(Nc1cccnc1)N1CCC(Cc2cccc(Oc3ccc(C(F)(F)F)cn3)c2)CC1",
    "observedMeasurement": 111
  },
  {
    "smilesString": "O=C(Nc1ccc(OC(F)(F)F)cc1)c1sccc1NCc1ccnc2ccccc12",
    "observedMeasurement": 76.7
  },
  {
    "smilesString": "Cc1cccc(-c2nn3c(c2-c2ccnc4ccc(C(N)=O)cc24)CCC3)n1",
    "observedMeasurement": 102
  },
  {
    "smilesString": "Cc1cccc(Nc2nc(-c3ccncc3)cs2)c1",
    "observedMeasurement": 95.8
  }
]

----------
testDetails: drug combination growth inhibition, ovarian cancer – cell-based, oncology-focused library, rucaparib conditional, profiling panel (AID 1508598)
cond: patient-derived ovarian cancer cells, CellTiter-Glo viability, 144 h; at 0.00488 µM; OCI-C5x cells; without rucaparib; stronger effect = lower value
Calls of active or inactive are those of the source.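 The calls were made as follows: active = normalized viability below 100% at a tested concentration; inactive = the rest.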

[
  {
    "smilesString": "NC1(c2ccc(-c3nc4ccn5c(=O)[nH]nc5c4cc3-c3ccccc3)cc2)CCC1",
    "viability": "129% (inactive)"
  },
  {
    "smilesString": "CC[C@H](Nc1ncnc2nc[nH]c12)c1nc2cccc(F)c2c(=O)n1-c1ccccc1",
    "viability": "116% (inactive)"
  },
  {
    "smilesString": "COc1ccc(-n2c(SCCCN3C(=O)c4cccc5cccc(c45)C3=O)nnc2-c2ccncc2)cc1",
    "viability": "117% (inactive)"
  },
  {
    "smilesString": "O=C(Nc1cccc(Cl)c1)Nc1ncc(CCNc2ncnc3ccsc23)s1",
    "viability": "96.5% (active)"
  },
  {
    "smilesString": "COc1nc(C)cnc1NS(=O)(=O)c1cccnc1-c1ccc(-c2nnco2)cc1",
    "viability": "114% (inactive)"
  }
]

----------
testDetails: growth inhibition of DIPG cells – cell-based, MIPE4.0 library, CellTiter-Glo luminescence, qHTS (AID 1347066);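 note: cells exposed to compound for 48 hours before readout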
cond: SU-DIPG-VI viability, CellTiter-Glo ATP luminescence
Records with an inconclusive call do not appear. Active and inactive are the calls of the source. Cut-off not given; nearly all actives show AC50 up to about 30 µM.

[
  {
    "compound": "CCN(CC)CCn1c(=O)c(Cc2ccc(OC)cc2)nc2ccccc21",
    "AC50": "inactive"
  },
  {
    "compound": "CCCNC(=O)Nc1ccc(Oc2ncnc3cc(OC)c(OC)cc23)cc1Cl",
    "AC50": "inactive"
  },
  {
    "compound": "C[N+](C)([O-])CCNc1ccc(NCC[N+](C)(C)[O-])c2c1C(=O)c1c(O)ccc(O)c1C2=O",
    "AC50": "inactive"
  },
  {
    "compound": "CCc1cnn2c(NCc3ccc[n+]([O-])c3)cc(N3CCCC[C@H]3CCO)nc12",
    "AC50": "inactive"
  },
  {
    "compound": "O=c1[nH]c(=O)n([C@H]2C[C@H](O)[C@@H](CO)O2)cc1/C=C/Br",
    "AC50": "inactive"
  },
  {
    "compound": "CC(C)(C)OC(=O)N[C@H]1CCCCC/C=C\\[C@@H]2C[C@@]2(C(=O)NS(=O)(=O)C2CC2)NC(=O)[C@@H]2C[C@@H](OC(=O)N3Cc4cccc(F)c4C3)CN2C1=O",
    "AC50": "inactive"
  },
  {
    "compound": "O=C(O)c1ccc(Nc2ncc3c(n2)-c2ccc(Cl)cc2C(c2c(F)cccc2F)=NC3)cc1",
    "AC50": "inactive"
  },
  {
    "compound": "CCc1ccc(C(=O)Nc2cc(CN3CCN(C)CC3)cc(C(F)(F)F)c2)cc1C#Cc1cnc2ccnn2c1",
    "AC50": "16.6 µM (active)"
  },
  {
    "compound": "C1Cc2[nH]nc(-c3nn[nH]n3)c2C1",
    "AC50": "inactive"
  },
  {
    "compound": "Cc1cc(C(C)Nc2ccccc2)c2nc(N3CCOCC3)cc(=O)n2c1 (stereo unspecified)",
    "AC50": "inactive"
  },
  {
    "compound": "CC(C)n1c(/C=C/[C@H](O)C[C@H](O)CC(=O)O)c(-c2ccc(F)cc2)c2ccccc21",
    "AC50": "inactive"
  }
]

----------
testDetails: growth inhibition, single agents and combos, ICB984, cell-based, cisplatin or BGB combos, synergistic combos for chromothripsis tumors (AID 1671451);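 note: cells exposed for 96 hours before readout; 0% = vehicle DMSO and 100% = killing by high DMSO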
cond: ICB984 medulloblastoma cells, drug combinations, cisplatin combo, at 5 µM, stronger effect = higher value
Kind request: treat -20% as inclusive, so inhibition at -20% or higher is 1.0, anything lower is 0.0.

[
  {
    "smilesString": "Cc1ccc2nc(NCCN)c3ncc(C)n3c2c1",
    "qualitativeLabel": 0.0
  },
  {
    "smilesString": "COc1cc(C=O)c([N+](=O)[O-])cc1OC",
    "qualitativeLabel": 1.0
  },
  {
    "smilesString": "Nc1ccc(-c2ccc3ncc4ccc(=O)n(-c5cccc(C(F)(F)F)c5)c4c3c2)cn1",
    "qualitativeLabel": 1.0
  },
  {
    "smilesString": "Nc1nc(OCc2cc(Br)cs2)c2[nH]cnc2n1",
    "qualitativeLabel": 1.0
  },
  {
    "smilesString": "CS(=O)(=O)c1ccc(-c2nnc(/C=C/c3nnc(-c4ccc(C#N)cc4)o3)n2-c2ccccc2Cl)nc1",
    "qualitativeLabel": 1.0
  }
]
